# Experimental target: Dimer of Gag-Pol polyprotein [489-587] (Human immunodeficiency virus 1)
# Construct: 489-587
# Assay text: Protease Inhibition Assay
# Details: pH 5.5; 22 °C
# Text: In the presence of HIV-l protease, the substrate is rapidly cleaved into two parts. The biotinylated amino terminal fragment binds to the avidin Pandex beads while the FITC-containing carboxy1 terminal fragment is removed through the membrane.
Binary call on IC50 with cut-off 2 nM: strictly below means criterion met, and equality or higher means criterion not met.

Completed entries (count: 7):
- Molecule: "CC(C)CN(C[C@@H](O)[C@H](Cc1ccccc1)NC(=O)[C@@H](C[S+]([O-])c1ccc2ccccc2c1)NS(C)(=O)=O)C(=O)NC(C)(C)C (stereo partly drawn)"
  Cat: "criterion not met"
- Molecule: "CC(=O)N[C@H](CS(=O)(=O)c1ccc2ccccc2c1)C(=O)N[C@@H](Cc1ccccc1)[C@H](O)CN1C[C@H]2CCS[C@H]2C[C@H]1C(=O)NC(C)(C)C"
  Cat: "criterion met"
- Molecule: "CC(C)(C)NC(=O)[C@@H]1C[C@@H]2SCC[C@@H]2CN1C[C@@H](O)[C@H](CSc1ccccc1)NC(=O)[C@@H](CS(=O)(=O)c1ccc2ccccc2c1)NC(=O)C(F)(F)F"
  Cat: "criterion met"
- Molecule: "CC(C)(C)NC(=O)[C@@H]1C[C@@H]2SCC[C@@H]2CN1C[C@@H](O)[C@H](Cc1ccccc1)NC(=O)[C@@H](CS(=O)(=O)c1ccc2ccccc2c1)NC(=O)C(F)(F)F"
  Cat: "criterion met"
- Molecule: "CC(C)(C)NC(=O)[C@@H]1C[C@@H]2SCC[C@@H]2CN1C[C@@H](O)[C@H](Cc1ccccc1)NC(=O)[C@@H](CS(=O)(=O)c1cccc2cccnc12)NC(=O)C(F)(F)F"
  Cat: "criterion met"
- Molecule: "CC(C)(C)NC(=O)[C@@H]1C[C@@H]2SCC[C@@H]2CN1C[C@@H](O)[C@H](Cc1ccccc1)NC(=O)[C@@H](CS(=O)(=O)c1ccc(F)cc1)NC(=O)C(F)(F)F"
  Cat: "criterion met"
- Molecule: "CC(C)(C)NC(=O)[C@@H]1C[C@@H]2SCC[C@@H]2CN1C[C@@H](O)[C@H](CSc1ccccc1)NC(=O)[C@@H](CS(=O)(=O)c1ccc(F)cc1)NC(=O)C(F)(F)F"
  Cat: "criterion not met"

Lookup: Here's an entry: CC(=O)N[C@H](CS(=O)(=O)c1ccc2ccccc2c1)C(=O)N[C@@H](Cc1ccccc1)[C@H](O)CN1C[C@H]2CCCC[C@H]2C[C@H]1C(=O)NC(C)(C)C . Is its IC50 below 2 nM?
Found: criterion met

Data provenance is BindingDB's records for doi:10.7270/Q22F7KMG.
